# System: U251 CNS
# Assay overview: NCI-60 one-dose screen, 48 h
# Test conditions: 10 µM unless noted
The panel holds about 83,000 compounds, 20% with a hit somewhere; the sample as a whole holds those more often. The source made the active and inactive calls. The calls were made as follows: active = growth percent below 10; inactive = the rest.
# valid calls are True for active, False for inactive; nothing else

Compound: COc1ccc(C(O)c2cc3c(N)c(C(=O)Nc4cccc(Cl)c4C)sc3nc2C)cc1 (configuration not stated)
Assayed system: U251 CNS
Classification: False

Compound: CS(=O)(=O)Nc1cc(-c2ccc3ncc(C#N)c(Nc4ccc(F)c(Cl)c4)c3c2)cnc1Cl
Assayed system: U251 CNS
Classification: True

## Input Any idea what this test logged for C=C(C)[C@@H]1CC[C@]2(COC(C)=O)CC[C@]3(C)[C@H](CC[C@@H]4[C@@]5(C)CCCN(C(C)=O)C(C)(C)[C@@H]5CC[C@]43C)[C@@H]12 ?
## Output True

## Input Likewise for O=C1Nc2ccccc2/C1=C\c1c[nH]c2ccc(Br)cc12 ?
## Output False

## Input Likewise for Fc1cccc(-c2ccc3c(c2)C2(CCNCC2)CN3)c1 ?
## Output False

## Input Likewise for CS(=O)(=O)c1nnc(-c2ccccc2)s1 ?
## Output False

## Input Likewise for CN(C)CCCC1(c2ccc(F)cc2)OCc2cc(-c3cc4ccccc4s3)ccc21 (configuration not stated) ?
## Output True

* * *

# Test system: IGROV1 ovarian
# Assay overview: NCI-60 one-dose screen, 48 h
# Test conditions: 10 µM unless noted
This is part of a sample that, as a whole, favours compounds with a hit. Of some 83,000 tested, about 20% had one in any assay. Calls of active or inactive are those of the source. Rule for the calls: active = growth percent below 10; inactive = the rest.
# valid calls are active, inactive; nothing else

Here's what some known entries look like.
Smiles str: N#Cc1c(Nc2ccc(N3CCOCC3)cc2)nc(SCC(=O)c2ccc(Br)cc2)nc1-c1ccccc1
Classification: inactive
//
Smiles str: Cc1n[nH]c2ccc(Br)cc2c1=O
Classification: inactive
//
Smiles str: Cc1c(CC(=S)N2CCOCC2)nnn1-c1cccc(C(F)(F)F)c1
Classification: inactive

## Input Any idea what this test logged for Clc1c(Cl)[n+](Cc2ccc3ccccc3c2)cn1Cc1ccc2ccccc2c1 ?
## Output active

## Input Likewise for O=C1/C=C/[C@@H](O)[C@@H]2C[C@@H](O)C[C@H]2/C=C/CCC[C@H](CCO)O1 ?
## Output inactive

## Input Likewise for CCNc1nc(O)c(/C=C2\C=Nc3ncccc32)s1 ?
## Output inactive

## Input Likewise for CC/C=C\CCC/C=C1/C(=O)C=C[C@@H]1C/C=C\CCCC(=O)OC ?
## Output inactive

## Input Likewise for O=C(Nc1ccc(Br)cc1)C1=NCCCCN1 ?
## Output inactive

## Input Likewise for COc1cc(Cl)c(C)cc1NC(=O)c1cc2ccccc2cc1O ?
## Output inactive

## Input Likewise for [2H]C([2H])([2H])Oc1ccc(F)cc1/C=C/C(=O)/C=C(/C=C/c1cc(F)ccc1OC([2H])([2H])[2H])OB(F)F ?
## Output inactive

* * *

# Test system: 786-0 renal
# Assay overview: NCI-60 one-dose screen, 48 h
# Test conditions: 10 µM unless noted
Compounds without any hit were thinned out: in the full panel of roughly 83,000, 20% have a hit. Active and inactive are the calls of the source. How the source made its calls: active means growth percent below 10; inactive means the rest.
# valid calls are True for active, False for inactive; nothing else

Here's what some known entries look like.
Molecule: CCN(CC)CCN1C(=O)c2c(c(C)c3c(oc4ccc(O)cc43)c2C)C1=O
Classification: True

Molecule: COc1cc2nc3sc(C(=O)Nc4ccc(C(=O)OC(C)C)cc4)c(C(=O)Nc4ccc(Cl)cc4C)n3c(=O)c2cc1OC
Classification: False

Molecule: O=C(O)c1ccc(-c2ccc(/C=N/Nc3nc(Nc4ccccc4)nc(N4CCCCC4)n3)o2)cc1
Classification: False

Molecule: O=C(O)c1cn(C2CC2)c2cc(N3CCN(C(=O)Nc4nc(-c5ccc(Br)cc5)cs4)CC3)c(F)cc2c1=O
Classification: False

Molecule: Cc1ccc(S(=O)(=O)Oc2ccc3sc4cccc(NCCN(C)C)c4c(=O)c3c2)cc1
Classification: True

Molecule: CC1(C)N=C(N)N=C(N)N1c1cccc(CCc2ccccc2)c1
Classification: False

Molecule: COC(=O)c1nc(-c2ccccc2)oc1S(=O)(=O)NCC(c1ccc(Cl)cc1)N1CCOCC1 (centres undefined)
Classification: False

Molecule: O=[N+]([O-])c1cc(NS(=O)(=O)c2ccccc2)ccc1NS(=O)(=O)c1ccccc1
Classification: False

Kindly consider the entry below.
## Input Any idea what this test logged for Cc1ccc(C2CC(c3nc(-c4ccc(Cl)cc4)oc3C)=NN2C(=O)c2ccncc2)cc1 (centres undefined) ?
## Output False

* * *

# Test system: BT-549 breast
# Assay overview: NCI-60 one-dose screen, 48 h (100 = growth as untreated, 0 = no growth, -100 = all killed)
# Test conditions: 10 µM unless noted
Compounds without any hit were thinned out: in the full panel of roughly 83,000, 20% have a hit. Activity calls are given as the source filed them. How the source made its calls: active means growth percent below 10; inactive means the rest.
Property name: growth

These solved cases illustrate the format of a correct answer.
Smiles str: Cc1ccc(-c2csc(N(C(=O)N3CCN(c4cc5c(cc4F)c(=O)c(C(=O)O)cn5C4CC4)CC3)c3ccccc3)n2)cc1
Assayed system: BT-549 breast
growth: -2.16% (active)

Smiles str: CNC1=CC(=O)c2c(C(=O)OC)c(C)[n+]([O-])c(C)c2C1=O
Assayed system: BT-549 breast
growth: 88.3% (inactive)

Smiles str: CCN(CC)CCCN1C(=O)c2c(c(C)c3c(oc4ccc(OC)cc43)c2C)C1=O
Assayed system: BT-549 breast
growth: 119% (inactive)

Smiles str: O=C1C(Nc2ccccn2)=C(I)C(=O)c2ncccc21
Assayed system: BT-549 breast
growth: -68.5% (active)

Smiles str: CC(C)(C)n1cc(-c2ccnc(NCCNS(=O)(=O)c3ccc(O)cc3)c2)c(-c2cccc(O)c2)n1
Assayed system: BT-549 breast
growth: 93.6% (inactive)

For every item below, please supply its growth.
1. Cc1ccc(-c2csc(NC(=O)c3ccccc3CN3C(=O)c4ccccc4C3=O)n2)cc1
2. CCN1CCN(CCNc2nccc(-c3c(-c4ccc(F)c(OC)c4)nc4sccn34)n2)S1(=O)=O
3. COC(=O)c1c2c(c(C)[n+]([O-])c1C)C(=O)C(NCc1ccc(OC)cc1)=CC2=O
4. CS(=O)(=O)c1nnc(-c2ccccc2)s1

## Output
1: 91.4% (inactive); 2: 93.2% (inactive); 3: 56% (inactive); 4: 105% (inactive)

* * *

# System: CAKI-1 renal
# Assay overview: NCI-60 one-dose screen, 48 h (100 = growth as untreated, 0 = no growth, -100 = all killed)
# Test conditions: 10 µM unless noted
Compounds without any hit were thinned out: in the full panel of roughly 83,000, 20% have a hit. The source made the active and inactive calls. How the source made its calls: active means growth percent below 10; inactive means the rest.
Please respond with reported growth for every item in the list.

These solved cases illustrate the format of a correct answer.
Compound: COc1ccc(CCN2C(=O)/C(=C/c3ccc(C4Oc5ccccc5C5CC(c6ccccc6)=NN54)cc3)SC2=S)cc1 (stereo not given)
growth: 89.8% (inactive)
--
Compound: CCN1C2CCC1/C(=C\c1ccc(F)cc1)C(=O)/C2=C/c1ccc(F)cc1
growth: 66.4% (inactive)
--
Compound: O=C(Nc1ncccc1OCc1ccccc1)NC1CCCCCC1
growth: 86.7% (inactive)
--
Compound: Cn1cc(-c2csc(-c3c[nH]c4ccc(F)cc34)n2)c2ccnc(Cl)c21
growth: 69.8% (inactive)

Let us examine a further case.
## Input Please look up its growth: COc1ccc2c(c1)c(-c1nc(-c3c[nH]c4ncccc34)cs1)cn2CCO
## Output 35.5% (inactive)

* * *

Please respond with reported growth for every item in the list.
# Tested on: EKVX NSCLC
# Assay overview: NCI-60 one-dose screen, 48 h (100 = growth as untreated, 0 = no growth, -100 = all killed)
# Test conditions: 10 µM unless noted
Compounds without any hit were thinned out: in the full panel of roughly 83,000, 20% have a hit.
Give bare numbers, in %.

These solved cases illustrate the format of a correct answer.
Compound: CN1CCN(CCCOc2cccc3nc(Nc4ccc(F)c(F)c4)ccc23)CC1
Assayed system: EKVX NSCLC
growth (%): 34
--
Compound: N#Cc1cccc(C2C3=C(COC3=O)N(CCO)c3cc4c(cc32)CCC4)c1 (stereo not given)
Assayed system: EKVX NSCLC
growth (%): 41.4
--
Compound: CN(C)CCCC1(c2ccc(F)cc2)OCc2cc(-c3ccc4cc[nH]c4c3)ccc21 (stereo not given)
Assayed system: EKVX NSCLC
growth (%): 61.6
--
Compound: Cc1ccc(-c2csc(NC(=O)c3ccccc3CN3C(=O)c4ccccc4C3=O)n2)cc1
Assayed system: EKVX NSCLC
growth (%): 93.6
--
Compound: CCN(CC)CCCN1C(=O)c2c(c(C)c3c(oc4ccc(O)cc43)c2C)C1=O
Assayed system: EKVX NSCLC
growth (%): 101

For every item below, please supply its growth.
1. Nc1nc(NC(=O)Nc2ccc(C(=O)O)cc2)nn1-c1ccc(S(N)(=O)=O)cc1
2. Oc1c(CN2CCOCC2)cc(COCc2ccccc2)c2cccnc12

## Output
[105, 92.5]

For every item below, please supply its growth.
1. C=C1C(=O)O[C@H]2[C@H]1CC/C(COC(=O)c1ccc(C(=O)O)s1)=C\CC[C@@]1(C)O[C@@H]21
2. N=c1c(S(=O)(=O)c2ccccc2)cc2c(=O)n3ccccc3nc2n1CC1CCCO1 (stereo not given)
3. COc1ccc(-c2ccc(-c3ccc(C(=N)N)nc3)s2)cc1Cl

## Output
1: 34.2; 2: 107; 3: 56.4
